biological target: Rho kinase II (ROKα) (Rattus norvegicus); experiment: Inhibition of recombinant Rho kinase II (ROKα), 33P phosphate uptake into S6 substrate peptide; settings: recombinant Rho kinase II (Upstate Biotechnology), S6 phosphate-acceptor peptide, 33P-labelled ATP, 20 min at 37° C.
Sequence (Q62868 whole entry): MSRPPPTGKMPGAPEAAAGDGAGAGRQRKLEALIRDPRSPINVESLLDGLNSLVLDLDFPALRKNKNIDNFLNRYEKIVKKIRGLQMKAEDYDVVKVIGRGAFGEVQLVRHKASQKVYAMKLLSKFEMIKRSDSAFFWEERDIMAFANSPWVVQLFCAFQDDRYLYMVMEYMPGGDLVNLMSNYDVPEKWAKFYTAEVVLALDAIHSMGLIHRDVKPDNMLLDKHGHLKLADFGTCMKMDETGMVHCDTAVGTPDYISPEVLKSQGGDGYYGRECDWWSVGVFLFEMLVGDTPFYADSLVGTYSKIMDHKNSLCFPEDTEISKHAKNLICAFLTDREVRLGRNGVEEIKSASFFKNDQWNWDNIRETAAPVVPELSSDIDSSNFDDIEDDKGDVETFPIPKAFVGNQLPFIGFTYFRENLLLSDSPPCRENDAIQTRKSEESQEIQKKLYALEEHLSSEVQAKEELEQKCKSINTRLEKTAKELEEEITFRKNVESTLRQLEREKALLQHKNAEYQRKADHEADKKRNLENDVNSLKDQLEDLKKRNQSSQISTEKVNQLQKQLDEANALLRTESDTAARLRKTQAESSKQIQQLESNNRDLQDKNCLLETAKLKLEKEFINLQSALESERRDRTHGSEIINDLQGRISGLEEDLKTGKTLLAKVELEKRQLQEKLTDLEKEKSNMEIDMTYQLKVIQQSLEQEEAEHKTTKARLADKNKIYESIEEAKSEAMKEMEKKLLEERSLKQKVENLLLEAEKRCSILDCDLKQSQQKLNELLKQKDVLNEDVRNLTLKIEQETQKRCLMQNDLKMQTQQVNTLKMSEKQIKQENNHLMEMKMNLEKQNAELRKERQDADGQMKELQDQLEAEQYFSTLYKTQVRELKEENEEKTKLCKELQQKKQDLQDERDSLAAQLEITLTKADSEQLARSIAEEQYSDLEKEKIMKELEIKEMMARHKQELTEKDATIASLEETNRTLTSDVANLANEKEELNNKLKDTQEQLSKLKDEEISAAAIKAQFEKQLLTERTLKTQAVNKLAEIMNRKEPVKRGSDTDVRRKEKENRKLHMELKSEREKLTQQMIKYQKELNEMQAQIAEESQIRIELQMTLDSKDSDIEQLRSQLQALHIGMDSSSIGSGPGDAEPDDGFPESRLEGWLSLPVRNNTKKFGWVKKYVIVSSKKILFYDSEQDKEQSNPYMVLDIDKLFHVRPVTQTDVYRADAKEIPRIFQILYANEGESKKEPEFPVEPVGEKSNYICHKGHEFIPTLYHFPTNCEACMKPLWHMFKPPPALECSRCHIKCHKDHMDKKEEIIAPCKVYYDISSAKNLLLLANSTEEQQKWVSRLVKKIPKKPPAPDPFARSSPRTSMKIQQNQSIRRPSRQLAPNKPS
Assignment: determine reported IC50 for the given compounds.
The reply should contain only the number, in nM.

Sample CN(C)CCNC(=O)Nc1ccc(Oc2ccnc3[nH]ccc23)c(F)c1 — what was its IC50? 27

Sample Cc1c[nH]c2nccc(Oc3ccc(NC(=O)CNC(C)(C)C)cc3F)c12 — what was its IC50? 12

Sample CN(C)CCOC(=O)Nc1ccc(Oc2ccnc3[nH]ccc23)c(F)c1 — what was its IC50? 20

Sample CC(C)(C)NCc1ccc(C(=O)Nc2ccc(Oc3ccnc4[nH]ccc34)c(F)c2)cc1 — what was its IC50? 49
